tested on: HPV-16; assay: qPCR sensitivity against HPV-HNSCC tumor samples diluted among 10 ng normal human DNA; conditions: Sample # 28
Measured Threshold of tumor cell numbers for HPV-16 detection, listed per entry for reference.
Number in tumor cells, nothing else.

QUERY: Any idea what Threshold of tumor cell numbers for HPV-16 detection was measured for BR E1-6: HPV-16 E1 region primer/probe set, SEQ ID NO: 43-45 (nucleic acid, chemistry not given here) DNA 1: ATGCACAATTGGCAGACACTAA DNA 2: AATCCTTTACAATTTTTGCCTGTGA DNA 3: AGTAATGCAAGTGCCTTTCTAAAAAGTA ?
RESULT: 0.6

QUERY: Any idea what Threshold of tumor cell numbers for HPV-16 detection was measured for BR E6-1: HPV-16 E6 region (172-373 bp) primer/probe set, SEQ ID NO: 58-60 (nucleic acid, chemistry not given here) DNA 1: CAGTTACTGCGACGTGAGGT DNA 2: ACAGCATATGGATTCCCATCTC DNA 3: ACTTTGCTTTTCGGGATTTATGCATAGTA ?
RESULT: 1.0

QUERY: Any idea what Threshold of tumor cell numbers for HPV-16 detection was measured for E7: previously designed (historical) HPV-16 E7 primers and Taqman probe, SEQ ID NO: 10-12; part of CLIA test (nucleic acid, Taqman probe, labels not given here, part of CLIA test) DNA 1: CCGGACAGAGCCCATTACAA DNA 2: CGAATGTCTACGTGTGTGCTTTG DNA 3: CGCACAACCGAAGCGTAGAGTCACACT ?
RESULT: 1.0

QUERY: Any idea what Threshold of tumor cell numbers for HPV-16 detection was measured for BR E1-5: HPV-16 E1 region primer/probe set, SEQ ID NO: 40-42 (same as SEQ ID NO: 1-3) (nucleic acid, chemistry not given here) DNA 1: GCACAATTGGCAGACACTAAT DNA 2: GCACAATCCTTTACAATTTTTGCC DNA 3: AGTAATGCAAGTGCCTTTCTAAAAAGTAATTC ?
RESULT: 0.6
